Target: T1, human PCSK9 (PCSK9 antigen, SEQ ID NO. 53) (human, UniProt A8T644 31-152; Q8NBP7 153-692, Biotin-labelled on amines in the MSD-SET and sorting experiments; positions not given.)
T1 construct: Biotin-labelled in MSD-SET; also called PCSK9-WT; PCSK9 protein
Test: flow cytometry, PCSK9 left on CHO-LDLR cells (anti-His-FITC) after premix with 1000 nM antibody
# reported Fluorescence Signal Value; entries follow
# output: bare number, no unit

* ADI-10086 (antibody, human IgG2, kappa, V domains shown, IgG) VH: QLQLQESGPGLVKPSETLSLTCTVSGGSIRSSAYYWGWIRQPPGKGLEWIGSINYRGSTYYNPSLKSRVTISVDTSKNQFSLKLSSVTAADTAVYYCARENSGVVPAAGPNWFGPWGQGTLVTVSS VL: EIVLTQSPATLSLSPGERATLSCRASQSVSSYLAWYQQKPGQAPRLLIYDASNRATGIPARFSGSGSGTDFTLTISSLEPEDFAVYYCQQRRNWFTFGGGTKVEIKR | 5270

Request: Could you tell me which Fluorescence Signal Value is on file for Lodelcizumab (antibody, V domains shown) VH: QVQLVQSGAEVKKPGASVKVSCKASGYTFSTMYMSWVRQAPGQGLEWMGRIDPANEHTNYAQKFQGRVTMTRDTSISTAYMELSRLTSDDTAVYYCARSYYYYNMDYWGQGTLVTVSS VL: QIVLTQSPATLSVSPGERATLSCRASQSVSYMHWYQQKPGQAPRLLIYGVFRRATGIPDRFSGSGSGTDFTLTIGRLEPEDFAVYYCLQWSSDPPTFGQGTKLEIK ?
Response: 7330

Request: What do we get for ADI-10085 (antibody, human IgG2, kappa, V domains shown, IgG) VH: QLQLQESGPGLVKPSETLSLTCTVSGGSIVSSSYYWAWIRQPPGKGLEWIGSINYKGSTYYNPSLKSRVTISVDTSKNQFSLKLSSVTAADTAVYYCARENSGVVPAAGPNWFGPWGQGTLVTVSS VL: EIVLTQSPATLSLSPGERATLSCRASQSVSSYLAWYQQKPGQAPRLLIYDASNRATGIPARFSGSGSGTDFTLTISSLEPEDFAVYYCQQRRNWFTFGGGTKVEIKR ?
Response: 5700
